METHOD_DESCRIPTION: NCI Yeast Anticancer Drug Screen. Data for the mec2-1 strain (AID 157)
MEASUREMENT_PARAMETERS: S. cerevisiae mec2-1 strain, at 1.2 µM
About 79,000 compounds went through this panel and 15% of them were active in at least one assay; those are over-represented in the sample as a whole. Active and inactive are the calls of the source. Cut-off read from the data, not from the text of the source: active = growth inhibition above about 70%; inactive = the rest.
Output constraint: value belongs to active, inactive

Below are worked cases with known answers.
1) CCCCCCCCCCCCNC(C)=O	inactive
2) Clc1ccc2c(c1)N(CCCN1CCCC13CCCCC3)c1ccccc1S2	inactive
3) Cc1ccc([N+]2=NC(c3ccccc3)=NN(c3ccccc3)C2)cc1	inactive
4) CC(O)=NC(Cc1ccc2ccccc2c1)C(O)=NC(Cc1ccc(Cl)cc1)C(O)=NC(Cc1c[nH]c2ccccc12)C(O)=NC(CO)C(O)=NC(Cc1ccc(O)cc1)C(O)=NC(CCCN=C(N)N)C(O)=NC(CC(C)C)C(O)=NC(CCCN=C(N)N)C(=O)N1CCCC1C(O)=NC(C)C(=N)O (stereo unspecified)	inactive
5) Cc1ccc(NC(=O)/C(CC2N=c3c(ccc4c(O)c5ccccc5c(O)c34)=NC2O)=N/NC(C)(C)C)cc1 (stereo unspecified)	inactive
6) CN(C)Cc1cc(N=Nc2ccc(Cl)cc2)ccc1OC(=O)c1ccccc1	inactive
7) COc1cc(O)c2c(c1O)C(=O)c1cc(C)ncc1C2=O	inactive
8) Cc1cc2c(cc1C)[n+]([O-])c(-c1nc3ccccc3s1)c(N)[n+]2[O-]	inactive

Would you kindly look at the next entry?
Enquiry: Test call for this compound, please: Cc1c(-c2ccccn2)ccc2ccccc12
Return: inactive

----------
METHOD_DESCRIPTION: NCI Yeast Anticancer Drug Screen. Data for the mec2-1 strain (AID 157)
MEASUREMENT_PARAMETERS: S. cerevisiae mec2-1 strain, at 3.7 µM, active compounds read high
About 79,000 compounds went through this panel and 15% of them were active in at least one assay; those are over-represented in the sample as a whole. Calls of active or inactive are those of the source. Cut-off read from the data, not from the text of the source: active = growth inhibition above about 70%; inactive = the rest.
READOUT_TYPE: growth inhibition

1. CCCC/C([O-])=C1/C(=O)N(c2ccccc2)N=C1C.CCCC/C([O-])=C1/C(=O)N(c2ccccc2)N=C1C.[Cu+2]	-3% (inactive)
2. O=C1c2cccnc2C(=O)C2C3C=CC(C3)C12 (stereo unspecified)	34% (inactive)
3. Oc1ccc(O)c(Cc2ccccc2)c1	30% (inactive)
4. COC(=O)Nc1cn2ccc(C(Cl)=C(Cl)Cl)cc2n1	-5% (inactive)
5. CC(C)CCCC(C)C1CCC2C3CCC4=CC(=O)/C(=C\O)CC4(C)C3CCC12C (stereo unspecified)	-6% (inactive)
6. CN1C(=O)c2ccc3ccccc3c2C1=O	0% (inactive)

Looking up O=Cc1ccc2c(c1)C(=O)c1ccccc1C2=O , I see its growth inhibition listed as 7% (inactive)

Just so you know, measured growth inhibition for CC(C)(C)C1=CC(=CC=C2C=CN(CCCCCCCCCCCO)C=C2)C=C(C(C)(C)C)C1=O came out at 99% (active)

So for Cc1cccc(C(C)(C)C)c1NC(=O)C(C#N)C1=C(Cl)C(=O)c2ccccc2C1=O (stereo unspecified) , the logged growth inhibition turned out to be 46% (inactive)

Field growth inhibition (entry CCCCOCn1c(=O)[nH]c(=O)c2cc(Br)ccc21 ) reads 6% (inactive)

For CC(=O)OC1CCC2(C)C(=CC(C3C=C4CC(OC(C)=O)CCC4(C)C4=C3C3CC5OC6(CCC(C)CO6)C(C)C5C3(C)CC4)C3=C2CCC2(C)C3CC3OC4(CCC(C)CO4)C(C)C32)C1 (stereo unspecified) the molecule record lists growth inhibition as 0% (inactive)

Sample CCCC(O)C1CC(C(C)C)CCC1C (stereo unspecified) ; growth inhibition observed: 3% (inactive)

get_value(item= O=C(CC(=O)n1nc(-c2ccccc2)c(N=Nc2ccc(Cl)cc2)c1-c1ccccc1)Nc1cccc(Cl)c1 , readout=growth inhibition) returns -4% (inactive)

Item: Cc1c(-c2ccccn2)ccc2ccccc12 | growth inhibition: 0% (inactive)

The molecule listed as COC(=O)NC1C(C)OC(OC2C/C=C(/C)C3C=CC4C(OC5CC(OC6CC(O)C(OC7CC(O)C(OC)C(C)O7)C(C)O6)C(O)C(C)O5)C(C)CC(C)C4C3(C)/C(O)=C3\C(=O)OC4(CC(C)C(CO)=CC4/C=C\2C)C3=O)CC1(C)[N+](=O)[O-] (stereo unspecified) has a reported growth inhibition of -5% (inactive)

Reported growth inhibition for COc1cc([C@@H]2c3cc4c(cc3[C@H](OC3OC5COC(C(C)C)OC5C(O)C3O)C3COC(=O)[C@@H]32)OCO4)cc(OC)c1O (stereo partly specified) was 1% (inactive)

// growth inhibition value for Oc1cccc2cc(Cl)cnc12 : -56% (inactive)

Entry under test: Cc1ccc(NCCNCCO)c2c(=O)c3cc(O)ccc3sc12 . Its growth inhibition was -13% (inactive)

Value of measured growth inhibition for the entry COC(=O)Oc1cc(Cl)c(Cl)cc1Cl : 4% (inactive)

Lookup result for O=C1CSC(c2cccc(Cl)c2)N1c1ccc(-c2ccc(-n3c(-c4ccccc4)nc4ccccc4c3=O)cc2)cc1 (stereo unspecified) ; measured growth inhibition: 4% (inactive)

Looking up CC(=O)ON=C1C=CC(=C(C#N)c2ccc(Cl)cc2)C=C1 , I found its growth inhibition recorded as 0% (inactive)

----------
METHOD_DESCRIPTION: NCI Yeast Anticancer Drug Screen. Data for the mgt1 strain (AID 153)
MEASUREMENT_PARAMETERS: S. cerevisiae mgt1 mutant growth inhibition; at 33.0 µM
The panel holds about 79,000 compounds, 15% with a hit somewhere; the sample as a whole holds those more often. Active and inactive are the calls of the source. Cut-off read from the data, not from the text of the source: active = growth inhibition above about 70%; inactive = the rest.
Select the matching outcome among active, inactive

1) CN1C(=O)c2ccc3ccccc3c2C1=O	inactive
2) COc1cc2ccnc(-c3c4ccccc4c(N)c4c(OC)c(OC)ccc34)c2cc1OC	inactive
3) COc1cc(/C=C2\NC(=O)N(/C=C3\C(=O)Oc4ccccc4C3=O)C2=O)ccc1O	inactive
4) O=C1CC(=O)c2ccccc21	inactive
5) CC12C(=O)OC(=O)C(c3ccccc31)c1ccccc12	inactive
6) O=c1c2ccccc2nc(-c2ccccc2)n1O	active
7) O=C(O)c1ccccc1/C=N/N=C1c2ccccc2-c2ccccc21	inactive
8) COC(=O)Oc1cc(Cl)c(Cl)cc1Cl	inactive
9) CC(C)(C)CC(C)(C)c1cc(O)c(O)c(CN2CCCCC2)c1	inactive
10) O=c1ssc(=Nc2ccccc2)n1-c1ccccc1	inactive

Consider now this further molecule.
Enquiry: Tell me the recorded outcome of this test for COc1ccc2[nH]cc([C@@H]3C4CCC(C4)[C@H]3NCc3cccc(CN[C@H]4C5CCC(C5)[C@@H]4c4c[nH]c5ccc(OC)cc45)c3)c2c1 .
Return: inactive

----------
METHOD_DESCRIPTION: NCI Yeast Anticancer Drug Screen. Data for the bub3 strain (AID 167)
MEASUREMENT_PARAMETERS: S. cerevisiae bub3 mutant strain, at 33.0 µM, active compounds read high
Compounds without any hit were thinned out: in the full panel of roughly 79,000, 15% have a hit. The source made the active and inactive calls. Rule as the data show it: active = growth inhibition above about 70%; inactive = the rest.
In this section, each of the molecules is paired with its reported growth inhibition.

The cases that follow already have their growth inhibition on record.
1. CCCCc1nnc(NS(=O)(=O)c2ccc(C)cc2)s1	47% (inactive)
2. CCc1c(Cl)c(C)cc(O)c1Cl	20% (inactive)
3. CC12C(=O)OC(=O)C(c3ccccc31)c1ccccc12	-5% (inactive)

molecule CN(C)c1ccc(C2CC(C)(O)Oc3cc4c(cc32)OCO4)cc1 (configuration not stated) , growth inhibition observed: 10% (inactive)

Lab book: growth inhibition of Cc1cc2c3ccccc3c3ccccc3c2nn1 noted as 9% (inactive)

Looking up Nc1ncc(-c2ccc(Br)cc2)s1 , I see its growth inhibition listed as 82% (active)

Per the records, this molecule ( CCCC(O)C1CC(C(C)C)CCC1C (configuration not stated) ) has growth inhibition equal to 1% (inactive)

The measured growth inhibition associated with COc1cc([C@@H]2c3cc4c(cc3[C@H](OC3OC5COC(C(C)C)OC5C(O)C3O)C3COC(=O)[C@@H]32)OCO4)cc(OC)c1O (some centres not stated) reads -63% (inactive)

Reported growth inhibition of Cc1cccc[n+]1C1CCc2c(ccc3ccccc23)C1=O (configuration not stated) : 18% (inactive)

growth inhibition reading for c1ccc(Cc2cc(-c3ccccc3)n[nH]2)cc1 : 37% (inactive)

// growth inhibition lookup, molecule = O=C(O)c1ccccc1/C=N/N=C1c2ccccc2-c2ccccc21 , result: 7% (inactive)

Documented growth inhibition of CCCCCCCCCCCCCCCCCC(=O)NCCCN(C)C : 98% (active)

growth inhibition in this record for COc1cc([C@@H]2c3cc4c(cc3[C@@H](Nc3ccc(NC(=O)c5cc([N+](=O)[O-])cn5C)cc3)[C@H]3COC(=O)[C@H]23)OCO4)cc(OC)c1O : 36% (inactive)

The measured growth inhibition associated with Cn1c(-c2ccc(/C=N\N3CCN(/N=C/c4ccc(-c5c[n+]6ccccc6n5C)cc4)CC3)cc2)c[n+]2ccccc12 reads 54% (inactive)

// sample CS(=O)(=O)OCCN(CCOS(C)(=O)=O)c1ccc(C=Nc2ccc(-c3csc(COc4ccccc4)n3)cc2)cc1 , its growth inhibition was 91% (active)

The recorded growth inhibition for entry CCOC(=O)c1[nH]n(-c2ccccc2)c(=O)c1C=NC(=S)C(N)=S equals 8% (inactive)

# molecule Oc1cccc2cc(Cl)cnc12 ; its growth inhibition = 96% (active)

Record CN(C)CCNC(=O)c1cccc2c1Oc1c(cccc1[N+](=O)[O-])O2 . Reported growth inhibition: 26% (inactive)

The value of growth inhibition measured for the molecule CN(C)C=NC1CCC(C(C)(C)C)CC1 (configuration not stated) turned out to be 94% (active)

GET /value?item= C=C1CCC(O)C/C1=C/C=C1\CCCC2(C)C1CCC2C(C)CCCC(C)C (configuration not stated) &field=growth inhibition returns -13% (inactive)

Data point: NC(=O)c1c([N+](=O)[O-])cc(C(F)(F)F)cc1[N+](=O)[O-] ; growth inhibition = -1% (inactive)

GET /value?item= CCN(CC)CCNc1ccc2ncn3c4cc(OC)c(OC)c(=O)c4c(O)c1c23 &field=growth inhibition returns -2% (inactive)
